target: Glycogen synthase kinase-3 alpha (Homo sapiens) (UniProt P49840); settings: at 1 µM;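 note: each figure is a mean percent inhibition of GSK3A activity, from a screen of the GSK published kinase inhibitor set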
Sequence (P49840 2-483 limits assumed): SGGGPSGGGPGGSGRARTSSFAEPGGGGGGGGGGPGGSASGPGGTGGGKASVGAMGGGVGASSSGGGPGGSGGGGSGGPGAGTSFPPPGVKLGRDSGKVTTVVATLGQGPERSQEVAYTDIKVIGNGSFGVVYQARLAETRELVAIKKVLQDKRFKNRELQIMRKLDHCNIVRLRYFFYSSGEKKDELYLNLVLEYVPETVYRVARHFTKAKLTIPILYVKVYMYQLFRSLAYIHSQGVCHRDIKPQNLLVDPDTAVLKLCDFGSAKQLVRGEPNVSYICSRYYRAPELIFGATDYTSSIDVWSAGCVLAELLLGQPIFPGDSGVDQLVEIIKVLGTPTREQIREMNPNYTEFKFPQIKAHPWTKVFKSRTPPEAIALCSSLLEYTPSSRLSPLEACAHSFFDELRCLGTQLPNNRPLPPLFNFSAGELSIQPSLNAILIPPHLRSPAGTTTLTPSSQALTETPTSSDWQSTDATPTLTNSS
Outcome label depends on inhibition relative to 5%: at/above gives class 1, below gives class 0.

# compound, assigned.class
data = [
    ("CS(=O)(=O)CCNCc1ccc(-c2ccc3ncnc(Nc4ccc(OCc5ccccc5)c(Cl)c4)c3c2)o1", "class 0"),
    ("CCn1c(-c2nonc2N)nc2cncc(C(=O)N3CCNCC3)c21", "class 0"),
    ("COc1ccc(COc2ccc(Cc3cnc(N)nc3N)cc2OC)cc1", "class 0"),
    ("CC(C)=Cc1cccc2c1/C(=N/Nc1ccc(S(N)(=O)=O)cc1)C(=O)N2", "class 1"),
    ("O=C1NC(=O)C(N2CCc3ccccc32)=C1c1ccc(Cl)cc1", "class 1"),
]

For this molecule, is measured inhibition 5% or higher? `COc1cc2c(cc1Nc1nc(N3CCc4ccccc43)c3cc[nH]c3n1)N(C(=O)CN(C)C)CC2`
class 0

For this molecule, is measured inhibition 5% or higher? `Cc1ccc(NC(=O)c2ccnc(N3CCCC3)c2)cc1-c1ccc(C(=O)NCC2CC2)cc1`
class 1

For this molecule, is measured inhibition 5% or higher? `CNC(=O)c1cncc(/C=C/c2c(Cl)cccc2Cl)c1`
class 0

For this molecule, is measured inhibition 5% or higher? `O=C(Nc1n[nH]c2nc(-c3ccco3)c(Br)cc12)C1CC1`
class 1

* * *

biological target: Mitogen-activated protein kinase kinase kinase kinase 4 (Homo sapiens); conditions: at 0.1 µM
Description: GSK_PKIS: MAP4K4 mean inhibition at 0.1 uM [Nanosyn]
Outcome label depends on inhibition relative to 4%: at/above gives Y, below gives N.

For orientation, consider the following solved cases.
# compound, assigned.class
records = [
    ("Nc1ncnc2occ(-c3ccc(NC(=O)Nc4cc(C(F)(F)F)cc(C(F)(F)F)c4)cc3)c12", "N"),
    ("CCn1c(-c2nonc2N)nc2c(N3CCCC3)nccc21", "N"),
    ("COc1cc2ncn(-c3cc(OCc4ccccc4C(F)(F)F)c(C(N)=O)s3)c2cc1OC", "Y"),
    ("CCn1c(-c2nonc2N)nc2ccncc21", "N"),
    ("CN(C)c1cc2c(Nc3ccc4nc(Cc5ccccc5)[nH]c4c3)ncnc2cn1", "Y"),
]

For this compound, is measured inhibition 4% or higher? `COc1ccccc1Nc1ncc(-c2ccccc2)o1`
Y

For this compound, is measured inhibition 4% or higher? COc1ccc2cc(-c3c(-c4ccncc4)nc(-c4ccc([S+](C)[O-])cc4)n3C)ccc2c1 (stereo unspecified)
N

* * *

target: Ribosomal protein S6 kinase alpha-6 (Homo sapiens) (UniProt Q9UK32); conditions: at 1 µM;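 note: each value is a mean inhibition of RSK4 from a GSK PKIS panel screen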
Sequence (Q9UK32 whole entry): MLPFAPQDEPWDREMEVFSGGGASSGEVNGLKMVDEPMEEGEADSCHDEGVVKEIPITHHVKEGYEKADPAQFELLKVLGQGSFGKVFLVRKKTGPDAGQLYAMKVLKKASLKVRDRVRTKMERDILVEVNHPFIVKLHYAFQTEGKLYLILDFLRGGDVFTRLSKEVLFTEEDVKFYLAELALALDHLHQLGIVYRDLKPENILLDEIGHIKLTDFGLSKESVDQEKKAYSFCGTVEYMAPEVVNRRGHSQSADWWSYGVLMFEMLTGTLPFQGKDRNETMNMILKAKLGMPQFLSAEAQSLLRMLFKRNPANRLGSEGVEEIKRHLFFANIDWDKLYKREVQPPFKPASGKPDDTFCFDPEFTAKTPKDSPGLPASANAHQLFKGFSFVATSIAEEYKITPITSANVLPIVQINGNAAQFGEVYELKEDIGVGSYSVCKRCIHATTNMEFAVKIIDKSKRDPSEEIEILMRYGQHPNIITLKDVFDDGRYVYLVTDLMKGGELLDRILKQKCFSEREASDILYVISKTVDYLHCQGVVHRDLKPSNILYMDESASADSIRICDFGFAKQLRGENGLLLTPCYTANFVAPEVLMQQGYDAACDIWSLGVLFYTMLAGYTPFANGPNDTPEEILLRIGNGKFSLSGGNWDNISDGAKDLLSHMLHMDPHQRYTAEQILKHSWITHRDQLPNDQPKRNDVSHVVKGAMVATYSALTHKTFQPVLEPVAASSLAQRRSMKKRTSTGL
Examples of molecules with documented inhibition follow.

A selection of reference data follows.
# molecule, inhibition
records = [
    ("CC1=C(C(=O)Nc2ccc3[nH]ncc3c2)C(c2ccc3ccccc3c2)CC(=O)N1 (stereo not given)", "7.45%"),
    ("COc1cccc(-n2ncc3c(N/N=C/c4cccc(F)c4)ncnc32)c1", "3.07%"),
    ("CS(=O)(=O)CCNCc1ccc(-c2ccc3ncnc(Nc4ccc(OCc5ccccc5)c(Cl)c4)c3c2)o1", "0.49%"),
    ("CCn1c(-c2nonc2N)nc2c(N3CCCC3)nccc21", "-0.13%"),
    ("Cc1nnc(-c2ccc(C)c(-c3ccc(C(=O)Nc4cccc(C#N)c4)cc3)c2)o1", "1.23%"),
    ("CS(=O)(=O)CCNCc1ccc(-c2ccc3ncnc(Nc4ccc(OCc5cccc(F)c5)c(C(F)(F)F)c4)c3c2)o1", "0.81%"),
    ("N#Cc1c(NC(=O)c2cccc3ccccc23)sc2c1CCCC2", "1.27%"),
    ("COc1ccc(-c2nn3ncccc3c2-c2ccnc(Nc3ccc(Cl)c(C(F)(F)F)c3)n2)cc1", "0.85%"),
    ("CCc1cccc(NC(=O)Nc2ccc(Oc3ccc4nc(NC(=O)OC)[nH]c4c3)cc2)c1", "1.25%"),
    ("NS(=O)(=O)c1ccc(N/N=C2\\C(=O)Nc3ccc(C(=O)NCCc4c[nH]cn4)cc32)cc1", "22.2%"),
]

Report inhibition, nothing else, for this molecule: `O=C1NC(=O)C(c2ccc(Cl)cc2)=C1Nc1ccc(Cl)c(C(=O)O)c1`
-1.03%

Report inhibition, nothing else, for this molecule: `COc1cc(C)c(NC(=O)CN(C)C)cc1Nc1nc(Nc2cccc(F)c2C(N)=O)c2cc[nH]c2n1`
23.1%

Report inhibition, nothing else, for this molecule: `Nc1ncnc2occ(-c3ccc(NC(=O)Nc4cccc(C(F)(F)F)c4)cc3)c12`
9.85%

Report inhibition, nothing else, for this molecule: `CC(C)=Cc1cccc2c1/C(=N/Nc1ccc(S(N)(=O)=O)cc1)C(=O)N2`
13.6%

Report inhibition, nothing else, for this molecule: `NC(=O)c1cccc(Nc2nccc(Nc3cccc4[nH]ncc34)n2)c1`
9.04%

Report inhibition, nothing else, for this molecule: `Cc1cc(O)cc(C)c1/C=C/c1cncc(-c2nn[nH]n2)c1`
0.92%

Report inhibition, nothing else, for this molecule: `CCn1c(-c2nonc2N)nc2c(C#CC(C)(C)O)nc(CN3CCCC3)cc21`
0.64%

Report inhibition, nothing else, for this molecule: `Cn1cc(C=C2C(=O)Nc3cccnc32)c2ccccc21`
10.2%

Report inhibition, nothing else, for this molecule: `COc1cc2ncn(-c3cc(OCc4ccccc4Cl)c(C(N)=O)s3)c2cc1OC`
17.2%

Report inhibition, nothing else, for this molecule: `Nc1ncnc2occ(-c3ccc(NC(=O)Nc4cc(C(F)(F)F)cc(C(F)(F)F)c4)cc3)c12`
5.35%

* * *

Examples of molecules with documented inhibition follow.
target: Protein kinase C eta type (Homo sapiens); details: at 0.1 µM;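 note: values are the mean percent inhibition of PKC-eta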
Provide only the numeric value, understood in %.

A selection of reference data follows.
# compound, result.unit, recorded.value
data = [
    ("CNC(=O)c1cncc(/C=C/c2c(Cl)cccc2Cl)c1", "%", 3.81),
    ("Cc1cc(O)cc(C)c1/C=C/c1cncc(-c2nn[nH]n2)c1", "%", 1),
    ("Nc1ncnc2occ(-c3ccc(NC(=O)Nc4cccc(C(F)(F)F)c4)cc3)c12", "%", 0.55),
    ("Cc1nnc(-c2ccc(C)c(-c3ccc(C(=O)Nc4cccc(C#N)c4)cc3)c2)o1", "%", 0.8),
]

Check Protein kinase C eta type (Homo sapiens) data and give inhibition for `CCn1c(-c2nonc2N)nc2cncc(C(=O)N3CC[C@H](N)C3)c21` .
51.2

Check Protein kinase C eta type (Homo sapiens) data and give inhibition for `NC(=O)c1cccc(Nc2nccc(Nc3cccc4[nH]ncc34)n2)c1` .
-3

* * *

Examples of molecules with documented inhibition follow.
test system: Serine/threonine-protein kinase B-raf (Homo sapiens), P15056 [V600E]; settings: at 1 µM;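 note: enzyme inhibition of the BRAF V599E mutant kinase, given as mean percent inhibition, screened within the GSK PKIS kinase inhibitor set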
Sequence (P15056 whole entry V600E): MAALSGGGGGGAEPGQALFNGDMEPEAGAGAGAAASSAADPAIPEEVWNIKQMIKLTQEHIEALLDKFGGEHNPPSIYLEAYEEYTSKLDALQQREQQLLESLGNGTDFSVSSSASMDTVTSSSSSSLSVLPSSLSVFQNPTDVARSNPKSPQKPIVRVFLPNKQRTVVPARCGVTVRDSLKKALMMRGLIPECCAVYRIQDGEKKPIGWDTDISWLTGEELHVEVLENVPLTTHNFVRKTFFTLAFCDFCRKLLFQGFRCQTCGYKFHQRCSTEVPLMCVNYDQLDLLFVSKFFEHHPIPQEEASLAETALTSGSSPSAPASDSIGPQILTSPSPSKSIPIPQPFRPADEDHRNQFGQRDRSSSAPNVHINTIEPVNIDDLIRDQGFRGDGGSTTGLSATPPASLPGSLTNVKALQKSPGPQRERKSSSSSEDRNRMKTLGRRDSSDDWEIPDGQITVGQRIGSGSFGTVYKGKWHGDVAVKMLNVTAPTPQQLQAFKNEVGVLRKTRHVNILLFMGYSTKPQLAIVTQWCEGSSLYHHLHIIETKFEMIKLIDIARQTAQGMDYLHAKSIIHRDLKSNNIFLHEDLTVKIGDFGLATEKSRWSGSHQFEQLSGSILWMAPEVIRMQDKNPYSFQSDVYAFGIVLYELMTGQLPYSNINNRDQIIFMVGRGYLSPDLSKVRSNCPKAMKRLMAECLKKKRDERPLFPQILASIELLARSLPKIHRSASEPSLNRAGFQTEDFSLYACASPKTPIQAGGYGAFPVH
Description: GSK_PKIS: BRAF (V599E mutant) mean inhibition at 1 uM [Nanosyn]
Provide only the numeric value, understood in %.

A selection of reference data follows.
# compound, recorded.value
rows = [
    ("CCn1c(-c2nonc2N)nc2c(C#CC(C)(C)O)nc(OC[C@@H](N)c3ccccc3)cc21", 3.32),
    ("CC(C)=Cc1cccc2c1/C(=N/Nc1ccc(S(N)(=O)=O)cc1)C(=O)N2", 2.83),
    ("Cc1cc(O)cc(C)c1/C=C/c1cncc(-c2nn[nH]n2)c1", 8.79),
]

Report inhibition, nothing else, for this molecule: `NS(=O)(=O)c1cccc(-c2ccc3c(NC(=O)C4CC4)n[nH]c3c2)c1`
-2.08

Report inhibition, nothing else, for this molecule: `Nc1ncnc2occ(-c3ccc(NC(=O)Nc4cc(C(F)(F)F)cc(C(F)(F)F)c4)cc3)c12`
7.76

* * *

target: Testis-specific serine/threonine-protein kinase 1 (Homo sapiens) (UniProt Q9BXA7); settings: at 1 µM;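 note: reported value is the mean inhibition, from the GSK PKIS kinase screening panel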
Sequence (Q9BXA7 whole entry): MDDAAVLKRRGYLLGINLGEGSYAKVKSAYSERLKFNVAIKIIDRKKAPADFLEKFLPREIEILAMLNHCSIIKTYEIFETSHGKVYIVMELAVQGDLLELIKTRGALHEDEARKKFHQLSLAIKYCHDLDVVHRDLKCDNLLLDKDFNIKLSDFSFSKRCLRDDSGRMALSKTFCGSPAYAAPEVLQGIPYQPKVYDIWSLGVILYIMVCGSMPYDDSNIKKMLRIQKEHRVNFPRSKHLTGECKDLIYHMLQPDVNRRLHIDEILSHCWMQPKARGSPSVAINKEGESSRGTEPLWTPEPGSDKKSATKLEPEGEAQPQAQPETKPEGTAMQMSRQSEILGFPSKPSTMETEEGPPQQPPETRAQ
property.label: inhibition (%)
Provide only the numeric value, understood in %.

# compound, system.under.test, property.label, recorded.value
rows = [
    ("COC(=O)Nc1nc2cc(Oc3ccc(NC(=O)Nc4cccc(C(=O)O)c4)cc3)ccc2[nH]1", "Testis-specific serine/threonine-protein kinase 1 (Homo sapiens) (UniProt Q9BXA7)", "inhibition", 0.96),
]

Report inhibition, nothing else, for this compound: `Cn1cc(C=C2C(=O)Nc3cccnc32)c2ccccc21`
1.12

* * *

target: Mitogen-activated protein kinase 1 (Homo sapiens); settings: at 0.1 µM;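 note: reported figure is an averaged percent inhibition of the kinase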
property.label: inhibition (%)
Provide only the numeric value, understood in %.

A selection of reference data follows.
# compound, inhibition (%)
data = [
    ("Nc1nc(-c2ccccn2)c(-c2ccc3ncccc3n2)s1", 1.86),
    ("NCc1ccc(-c2nc(-c3ccc(Cl)c(O)c3)c(-c3ccncc3)[nH]2)cc1", -0.32),
]

Report inhibition, nothing else, for this compound: `CCc1cccc(NC(=O)Nc2ccc(Oc3ccc4nc(NC(=O)OC)[nH]c4c3)cc2)c1`
2.12

Report inhibition, nothing else, for this compound: `Nc1ncnc2occ(-c3ccc(NC(=O)Nc4cc(C(F)(F)F)cc(C(F)(F)F)c4)cc3)c12`
2.73

Report inhibition, nothing else, for this compound: `[O-][S+]1CCN(Cc2ccc(-c3ccc4ncnc(Nc5ccc(OCc6ccccc6)c(F)c5)c4c3)o2)CC1`
0.52

Report inhibition, nothing else, for this compound: `CCn1c(-c2nonc2N)nc2cncc(C(=O)N3CC[C@H](N)C3)c21`
4.87

Report inhibition, nothing else, for this compound: CC1=C(C(=O)Nc2ccc3[nH]ncc3c2)C(c2ccc(F)cc2)NC(=O)N1 (configuration not stated)
1.62

Report inhibition, nothing else, for this compound: CC1=C(C(=O)Nc2ccc3[nH]ncc3c2)C(c2ccc(Cl)c(Cl)c2)CC(=O)N1 (configuration not stated)
3.85

Report inhibition, nothing else, for this compound: `CCCN1CCC(Oc2cc(Nc3nc(Nc4cccc(F)c4C(N)=O)c4cc[nH]c4n3)c(OC)cc2Cl)CC1`
0.93

Report inhibition, nothing else, for this compound: `COc1cc(C)c(NC(=O)CN(C)C)cc1Nc1nc(Nc2cccc(F)c2C(N)=O)c2cc[nH]c2n1`
2.86

Report inhibition, nothing else, for this compound: `COc1cc2ncn(-c3cc(OCc4ccccc4C(F)(F)F)c(C(N)=O)s3)c2cc1OC`
4.18

Report inhibition, nothing else, for this compound: `CCn1c(-c2nonc2N)nc2ccncc21`
13.4

Report inhibition, nothing else, for this compound: `CCn1c(-c2nonc2N)nc2c(N3CCCC3)nccc21`
-2.76

Report inhibition, nothing else, for this compound: `NS(=O)(=O)c1ccc(N/N=C2\C(=O)Nc3ccc(C(=O)NCCc4c[nH]cn4)cc32)cc1`
1.92

Report inhibition, nothing else, for this compound: `Cc1ccc(NC(=O)c2ccnc(N3CCCC3)c2)cc1-c1ccc(C(=O)NCC2CC2)cc1`
4.25

Report inhibition, nothing else, for this compound: `CCCN1CCC=C(c2ccc(Nc3nc(Nc4ccccc4C(N)=O)c4cc[nH]c4n3)c(C)c2)C1`
6.87

Report inhibition, nothing else, for this compound: `Nc1ncnc2occ(-c3ccc(NC(=O)Nc4cccc(C(F)(F)F)c4)cc3)c12`
4.78
